Data provenance: ChEMBL document CHEMBL6071191

# TEST SYSTEM: Deubiquitinase and deneddylase Dub1 (Chlamydia trachomatis serovar L2 (strain ATCC VR-902B / DSM 19102 /434/Bu)) (UniProt B0B9A0)
# Sequence (B0B9A0 whole entry): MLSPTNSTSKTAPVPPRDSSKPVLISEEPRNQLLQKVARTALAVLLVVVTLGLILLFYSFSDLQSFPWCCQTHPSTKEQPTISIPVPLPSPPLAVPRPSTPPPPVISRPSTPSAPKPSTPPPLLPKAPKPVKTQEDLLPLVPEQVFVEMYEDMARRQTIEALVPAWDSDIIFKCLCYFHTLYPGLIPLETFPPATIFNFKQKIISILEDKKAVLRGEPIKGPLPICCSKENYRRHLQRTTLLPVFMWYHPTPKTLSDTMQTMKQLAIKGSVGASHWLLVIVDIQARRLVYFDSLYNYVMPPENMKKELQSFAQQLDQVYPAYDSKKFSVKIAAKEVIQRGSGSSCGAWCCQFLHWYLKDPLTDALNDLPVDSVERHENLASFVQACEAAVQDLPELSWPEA
# PROCEDURE DETAILS: Binding affinity to Chlamydia trachomatis DUB1 using Ub-Rh110Gly as substrate assessed as ratio of Kinact/Ki
Decide using Ratio alone. Strictly below 20 M⁻¹ s⁻¹: 1. Equal to or above 20 M⁻¹ s⁻¹: 0.

Solved entries (count: 5):
COc1ccccc1CNC(=O)c1ccc(CNC(=O)c2coc(C#N)n2)cc1 : 0
COc1ccccc1CNC(=O)c1ccc(CNC(=O)[C@H]2CCN(C#N)C2)cc1 : 1
N#Cc1nccc(C(=O)NCc2ccc(C(=O)NCc3ccccc3)cc2)n1 : 1
COc1ccccc1CNC(=O)c1ccc(CNS(=O)(=O)c2cnc(C#N)nc2)cc1 : 1
COc1ccccc1CNC(=O)c1ccc(CNC(=O)[C@@H]2CCN(C#N)C2)cc1 : 1

Please examine the following record next.
Query: is_below(Ratio, 20 M⁻¹ s⁻¹) for COc1ccccc1CNC(=O)c1ccc(CNC(=O)c2nc(C#N)ncc2F)cc1 ?
Reply: 0
